# tested system: Nonstructural protein 5A (Hepatitis C virus) (UniProt Q5L478)
# Sequence (whole entry): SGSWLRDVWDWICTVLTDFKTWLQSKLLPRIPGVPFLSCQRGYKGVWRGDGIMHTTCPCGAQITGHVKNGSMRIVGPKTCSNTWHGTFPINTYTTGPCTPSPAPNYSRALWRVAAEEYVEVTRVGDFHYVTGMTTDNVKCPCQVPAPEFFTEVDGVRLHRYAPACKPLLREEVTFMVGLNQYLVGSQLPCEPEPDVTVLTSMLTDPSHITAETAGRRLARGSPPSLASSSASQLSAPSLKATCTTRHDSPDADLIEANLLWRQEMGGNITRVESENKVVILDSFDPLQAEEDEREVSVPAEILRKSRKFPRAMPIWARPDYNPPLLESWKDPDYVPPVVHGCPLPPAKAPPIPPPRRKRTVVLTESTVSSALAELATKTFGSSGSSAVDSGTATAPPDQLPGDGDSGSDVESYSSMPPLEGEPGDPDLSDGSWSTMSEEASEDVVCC
# experiment summary: Inhibition of NS5A in HCV genotype 1a infected in HuH7 replicon cells assessed as decrease in viral replication after 3 days by RT-PCR method
# Type: cell-based
# condition set: Hepatitis C virus subtype 1a
Assign labels as follows, please: MET for EC90 below 4 pM; NOT MET for EC90 equal to or exceeding 4 pM.

Please review the following examples before continuing.
COC(=O)N[C@H](C(=O)N1CCC[C@H]1c1ncc(-c2cc(F)c3c(c2)O[C@@H](c2cc4ccccc4s2)n2c-3cc3cc(-c4cnc([C@@H]5CCCN5C(=O)[C@@H](NC(=O)OC)C5CCOCC5)[nH]4)ccc32)[nH]1)C(C)C	NOT MET
COC(=O)N[C@H](C(=O)N1CCC[C@H]1c1ncc(-c2cc(F)c3c(c2)O[C@@H](c2cc4c(s2)CCC4)n2c-3cc3cc(-c4cnc([C@@H]5CCCN5C(=O)[C@@H](NC(=O)OC)[C@@H]5CCOC(C)(C)C5)[nH]4)ccc32)[nH]1)C(C)C	NOT MET
CCc1ccc([C@@H]2Oc3cc(-c4cnc([C@@H]5CCCN5C(=O)[C@@H](NC(=O)OC)[C@@H]5CCOC(C)(C)C5)[nH]4)cc(F)c3-c3cc4cc(-c5cnc([C@@H]6CCCN6C(=O)[C@@H](NC(=O)OC)C(C)C)[nH]5)ccc4n32)s1	NOT MET
CCCc1ccc([C@@H]2Oc3cc(-c4cnc([C@@H]5CCCN5C(=O)[C@@H](NC(=O)OC)C(C)C)[nH]4)cc(F)c3-c3cc4cc(-c5cnc([C@@H]6CCCN6C(=O)[C@@H](NC(=O)OC)C6CCOCC6)[nH]5)ccc4n32)s1	MET

INPUT: Find out if reported EC90 for COC(=O)N[C@H](C(=O)N1CCC[C@H]1c1ncc(-c2cc(F)c3c(c2)O[C@@H](c2ccc4c(c2)CCCO4)n2c-3cc3cc(-c4cnc([C@@H]5CCCN5C(=O)[C@@H](NC(=O)OC)C5CCOCC5)[nH]4)ccc32)[nH]1)C(C)C is less than 4 pM
OUTPUT: NOT MET

INPUT: Find out if reported EC90 for COC(=O)N[C@H](C(=O)N1CCC[C@H]1c1ncc(-c2cc(F)c3c(c2)O[C@@H](c2ccc(C(F)(F)F)s2)n2c-3cc3cc(-c4cnc([C@@H]5CCCN5C(=O)[C@@H](NC(=O)OC)C5CCOCC5)[nH]4)ccc32)[nH]1)C(C)C is less than 4 pM
OUTPUT: MET
